test system: A549 NSCLC; test: NCI tumour cell line growth inhibition, 48 h
Where a SMILES comes first, the peptide text is derived from it. [ ]: non-standard residue; d: D form. The star is where a group is joined. ξ: configuration not given here. ξF = NC(Cc1ccccc1)C(=O)O; Cbz = O=C(OCc1ccccc1)*; Aib = CC(C)(N)C(=O)O
Consider the following compounds and their measured TGI readings.

Example entries and their recorded answers appear below.
COc1ccc2nc(N/N=C(\C)c3ccccn3)cc(C)c2c1 | 3.24 µM
CCC1C(=O)C[C@H]2[C@@H]3C(O)CC4=CC(=O)CC[C@]4(C)[C@H]3CC[C@]12C (stereo not given in full) | > 50 µM
N#Cc1c(-c2nc3ccccc3s2)c(=O)oc2cc(O)ccc12 | > 100 µM
COc1ccc(N(C(=O)Nc2ccc(Cl)c(Cl)c2)c2ccccc2)cc1 | > 10 µM
Nn1c(-c2ccccc2)nc2ccc(Br)cc2c1=O | > 100 µM

Let's switch to this compound now.
# TGI (compound: CC(C)(NC(=O)OCc1ccccc1)C(=O)NC(Cc1ccccc1)C(=O)O (stereo not given) (Cbz-[Aib]-[ξF]-OH) ) is > 100 µM

* * *

test system: A549 NSCLC; experiment: NCI tumour cell line growth inhibition, 48 h
quantity: TGI

O=C1C(Br)=CC2([N+](=O)[O-])CCNc3c(O)c4c5c(c3C2=C1Br)=NCCC=5C=N4 (centres undefined) | 16.3 µM

response.value for CCNC(=O)Nc1cccc(C)n1 (field: TGI) = > 100 µM

// recorded TGI for CCc1cccc(C(C)C)c1NC(=O)C(=O)C(Cc1nc2ccccc2[nH]c1=O)C(=O)OC (centres undefined) : > 100 µM

According to the records, this compound O=P(O)(CCP(=O)(O)c1ccccc1)c1ccccc1 displays TGI of > 100 µM

Hello, the source for this data is PubChem BioAssay (NCI), in case you need it.
